Recorded total protein half-life in vivo by entry
# Protocol Notes: total protein half-life in vivo (active degradation + dilution); higher = more stable protein
# Condition: E. coli NCM3722 delta-clpP; growth: N-lim chemostat; doubling time 6 h

# Residue Sequence, total protein half-life in vivo
measured = [
    ("MIAELFTNNALNLVIIFGSCAALILMSFWFRRGNRKRKGFLFHAVQFLIYTIIISAVGSIINYVIENYKLKFITPGVIDFICTSLIAVILTIKLFLLINQFEKQQIKKGRDITSARIMSRIIKITIIVVLVLLYGEHFGMSLSGLLTFGGIGGLAVGMAGKDILSNFFSGIMLYFDRPFSIGDWIRSPDRNIEGTVAEIGWRITKITTFDNRPLYVPNSLFSSISVENPGRMTNRRITTTIGLRYEDAAKVGVIVEAVREMLKNHPAIDQRQTLLVYFNQFADSSLNIMVYCFTKTTVWAEWLAAQQDVYLKIIDIVQSHGADFAFPSQTLYMDNITPPEQGR [P0AEB5]", "6.41 h"),
    ("MEYKDPMHELLSSLEQIVFKDETQKITLTHRTTSCTEIEQLRKGTGLKIDDFARVLGVSVAMVKEWESRRVKPSSAELKLMRLIQANPALSKQLME [P0A9V5]", "0.508 h"),
    ("MTLQQQIIKALGAKPQINAEEEIRRSVDFLKSYLQTYPFIKSLVLGISGGQDSTLAGKLCQMAINELRLETGNESLQFIAVRLPYGVQADEQDCQDAIAFIQPDRVLTVNIKGAVLASEQALREAGIELSDFVRGNEKARERMKAQYSIAGMTSGVVVGTDHAAEAITGFFTKYGDGGTDINPLYRLNKRQGKQLLAALACPEHLYKKAPTADLEDDRPSLPDEVALGVTYDNIDDYLEGKNVPQQVARTIENWYLKTEHKRRPPITVFDDFWKK", "5.28 h"),
]

---

# Protocol Notes: total protein half-life in vivo (active degradation + dilution); higher = more stable protein
# Condition: E. coli NCM3722 delta-clpP; growth: N-lim chemostat; doubling time 6 h

# Residue Sequence, total protein half-life in vivo / h
rows = [
    ("MPPRRYNPDTRRDELLERINLDIPGAVAQALREDLGGTVDANNDITAKLLPENSRSHATVITRENGVFCGKRWVEEVFIQLAGDDVTIIWHVDDGDVINANQSLFELEGPSRVLLTGERTALNFVQTLSGVASKVRHYVELLEGTNTQLLDTRKTLPGLRSALKYAVLCGGGANHRLGLSDAFLIKENHIIASGSVRQAVEKASWLHPDAPVEVEVENLEELDEALKAGADIIMLDNFETEQMREAVKRTNGKALLEVSGNVTDKTLREFAETGVDFISVGALTKHVQALDLSMRFR", 5.46),
    ("MDLRDLKTFLHLAESRHFGRSARAMHVSPSTLSRQIQRLEEDLGQPLFVRDNRTVTLTEAGEELRVFAQQTLLQYQQLRHTIDQQGPSLSGELHIFCSVTAAYSHLPPILDRFRAEHPSVEIKLTTGDAADAMEKVVTGEADLAIAGKPETLPGAVAFSMLENLAVVLIAPALPCPVRNQVSVEKPDWSTVPFIMADQGPVRRRIELWFRRNKISNPMIYATVGGHEAMVSMVALGCGVALLPEVVLENSPEPVRNRVMILERSDEKTPFELGVCAQKKRLHEPLIEAFWKILPNHK", 6.14),
    ("MSKRYFVTGTDTEVGKTVASCALLQAAKAAGYRTAGYKPVASGSEKTPEGLRNSDALALQRNSSLQLDYATVNPYTFAEPTSPHIISAQEGRPIESLVMSAGLRALEQQADWVLVEGAGGWFTPLSDTFTFADWVTQEQLPVILVVGVKLGCINHAMLTAQVIQHAGLTLAGWVANDVTPPGKRHAEYMTTLTRMIPAPLLGEIPWLAENPENAATGKYINLALL", 5.37),
    ("MLAKRIIPCLDVRDGQVVKGVQFRNHEIIGDIVPLAKRYAEEGADELVFYDITASSDGRVVDKSWVSRVAEVIDIPFCVAGGIKSLEDAAKILSFGADKISINSPALADPTLITRLADRFGVQCIVVGIDTWYDAETGKYHVNQYTGDESRTRVTQWETLDWVQEVQKRGAGEIVLNMMNQDGVRNGYDLEQLKKVREVCHVPLIASGGAGTMEHFLEAFRDADVDGALAASVFHKQIINIGELKAYLATQGVEIRIC", 4.15),
    ("MIIGNIHNLQPWLPQELRQAIEHIKAHVTAETPKGKHDIEGNRLFYLISEDMTEPYEARRAEYHARYLDIQIVLKGQEGMTFSTQPAGAPDTDWLADKDIAFLPEGVDEKTVILNEGDFVVFYPGEVHKPLCAVGAPAQVRKAVVKMLMA [P0AF96]", 4.23),
    ("MKTSVRIGAFEIDDGELHGESPGDRTLTIPCKSDPDLCMQLDAWDAETSIPALLNGEHSVLYRTRYDQQSDAWIMRLA", 1.58),
    ("MQEIMQFVGRHPILSIAWIALLVAVLVTTFKSLTSKVKVITRGEATRLINKEDAVVVDLRQRDDFRKGHIAGSINLLPSEIKANNVGELEKHKDKPVIVVDGSGMQCQEPANALTKAGFAQVFVLKEGVAGWAGENLPLVRGK [P0AG27]", 6.89),
]

---

# Protocol Notes: total protein half-life in vivo (active degradation + dilution); higher = more stable protein
# Condition: E. coli NCM3722 delta-clpP; growth: N-lim chemostat; doubling time 6 h

# Residue Sequence, Unit Name, total protein half-life in vivo
data = [
    ("MKQYLIAPSILSADFARLGEDTAKALAAGADVVHFDVMDNHYVPNLTIGPMVLKSLRNYGITAPIDVHLMVKPVDRIVPDFAAAGASIITFHPEASEHVDRTLQLIKENGCKAGLVFNPATPLSYLDYVMDKLDVILLMSVNPGFGGQSFIPQTLDKLREVRRRIDESGFDIRLEVDGGVKVNNIGEIAAAGADMFVAGSAIFDQPDYKKVIDEMRSELAKVSHE [P0AG07]", "h", 4.58),
    ("MPLLDIRNLTIEFKTGDEWVKAVDRVSMTLTEGEIRGLVGESGSGKSLIAKAICGVNKDNWRVTADRMRFDDIDLLRLSARERRKLVGHNVSMIFQEPQSCLDPSERVGRQLMQNIPAWTYKGRWWQRFGWRKRRAIELLHRVGIKDHKDAMRSFPYELTEGECQKVMIAIALANQPRLLIADEPTNSMEPTTQAQIFRLLTRLNQNSNTTILLISHDLQMLSQWADKINVLYCGQTVETAPSKELVTMPHHPYTQALIRAIPDFGSAMPHKSRLNTLPGAIPLLEQLPIGCRLGPRCPYAQRECIVTPRLTGAKNHLYACHFPLNMEKE [P0AAH4]", "h", 5.65),
    ("MKTLIRKFSRTAITVVLVILAFIAIFNAWVYYTESPWTRDARFSADVVAIAPDVSGLITQVNVHDNQLVKKGQILFTIDQPRYQKALEEAQADVAYYQVLAQEKRQEAGRRNRLGVQAMSREEIDQANNVLQTVLHQLAKAQATRDLAKLDLERTVIRAPADGWVTNLNVYTGEFITRGSTAVALVKQNSFYVLAYMEETKLEGVRPGYRAEITPLGSNKVLKGTVDSVAAGVTNASSTRDDKGMATIDSNLEWVRLAQRVPVRIRLDNQQENIWPAGTTATVVVTGKQDRDESQDSFFRKMAHRLREFG", "h", 5.51),
    ("MIEFVYPHTQLVAGVDEVGRGPLVGAVVTAAVILDPARPIAGLNDSKKLSEKRRLALYEEIKEKALSWSLGRAEPHEIDELNILHATMLAMQRAVAGLHIAPEYVLIDGNRCPKLPMPAMAVVKGDSRVPEISAASILAKVTRDAEMAALDIVFPQYGFAQHKGYPTAFHLEKLAEHGATEHHRRSFGPVKRALGLAS", "h", 1.93),
    ("MNRIEHYHDWLRDAHAMEKQAESMLESMASRIDNYPELRARIEQHLSETKNQIVQLETILDRNDISRSVIKDSMSKMAALGQSIGGIFPSDEIVKGSISGYVFEQFEIACYTSLLAAAKNAGDTASIPTIEAILNEEKQMADWLIQNIPQTTEKFLIRSETDGVEAKK", "h", 4.24),
    ("MSEKVVFSQLSRKFIDENDATPAEAQQVVYYSLAIGHHLGVIDCLEAALTCPWDEYLAWIATLEAGSEARRKMEGVPKYGEIVIDINHVPMLANAFDKARAAQTSQQQEWSTMLLSMLHDIHQENAIYLMVRRLRD [P0AEV7]", "h", 2.63),
    ("MNNRVHQGHLARKRFGQNFLNDQFVIDSIVSAINPQKGQAMVEIGPGLAALTEPVGERLDQLTVIELDRDLAARLQTHPFLGPKLTIYQQDAMTFNFGELAEKMGQPLRVFGNLPYNISTPLMFHLFSYTDAIADMHFMLQKEVVNRLVAGPNSKAYGRLSVMAQYYCNVIPVLEVPPSAFTPPPKVDSAVVRLVPHATMPHPVKDVRVLSRITTEAFNQRRKTIRNSLGNLFSVEVLTGMGIDPAMRAENISVAQYCQMANYLAENAPLQES", "h", 5.39),
    ("MTPEHLPTEQYEAQLAEKVVRLQSMMAPFSDLVPEVFRSPVSHYRMRAEFRIWHDGDDLYHIIFDQQTKSRIRVDSFPAASELINQLMTAMIAGVRNNPVLRHKLFQIDYLTTLSNQAVVSLLYHKKLDDEWRQEAEALRDALRAQNLNVHLIGRATKTKIELDQDYIDERLPVAGKEMIYRQVENSFTQPNAAMNIQMLEWALDVTKGSKGDLLELYCGNGNFSLALARNFDRVLATEIAKPSVAAAQYNIAANHIDNVQIIRMAAEEFTQAMNGVREFNRLQGIDLKSYQCETIFVDPPRSGLDSETEKMVQAYPRILYISCNPETLCKNLETLSQTHKVERLALFDQFPYTHHMECGVLLTAK", "h", 5.19),
    ("MKYDLIIIGSGSVGAAAGYYATRAGLNVLMTDAHMPPHQHGSHHGDTRLIRHAYGEGEKYVPLVLRAQTLWDELSRHNEEDPIFVRSGVINLGPADSTFLANVAHSAEQWQLNVEKLDAQGIMARWPEIRVPDNYIGLFETDSGFLRSELAIKTWIQLAKEAGCAQLFNCPVTAIRHDDDGVTIETADGEYQAKKAIVCAGTWVKDLLPELPVQPVRKVFAWYQADGRYSVKNKFPAFTGELPNGDQYYGFPAENDALKIGKHNGGQVIHSADERVPFAEVASDGSEAFPFLRNVLPGIGCCLYGAACTYDNSPDEDFIIDTLPGHDNTLLITGLSGHGFKFASVLGEIAADFAQDKKSDFDLTPFRLSRFQ", "h", 3.05),
    ("MNSHNITNESLALALMLVVVAILISHKEKLALEKDILWSVGRAIIQLIIVGYVLKYIFSVDDASLTLLMVLFICFNAAWNAQKRSKYIAKAFISSFIAITVGAGITLAVLILSGSIEFIPMQVIPIAGMIAGNAMVAVGLCYNNLGQRVISEQQQIQEKLSLGATPKQASAILIRDSIRAALIPTVDSAKTVGLVSLPGMMSGLIFAGIDPVKAIKYQIMVTFMLLSTASLSTIIACYLTYRKFYNSRHQLVVTQLKKK", "h", 6.44),
    ("MQNRLTIKDIARLSGVGKSTVSRVLNNESGVSQLTRERVEAVMNQHGFSPSRSARAMRGQSDKVVAIIVTRLDSLSENLAVQTMLPAFYEQGYDPIMMESQFSPQLVAEHLGVLKRRNIDGVVLFGFTGITEEMLAHWQSSLVLLARDAKGFASVCYDDEGAIKILMQRLYDQGHRNISYLGVPHSDVTTGKRRHEAYLAFCKAHKLHPVAALPGLAMKQGYENVAKVITPETTALLCATDTLALGASKYLQEQRIDTLQLASVGNTPLMKFLHPEIVTVDPGYAEAGRQAACQLIAQVTGRSEPQQIIIPATLS", "h", 5.57),
]
